# Test system: reticulo-endothelial system
# PROCEDURE TEXT: Activity of the reticulo-endothelial system (colloidal charcoal clearance) in cyclophosphamide-immunodepressed mouse
# Assay type: in vivo
# EXPERIMENTAL SETUP: 100 mg/kg/die i.p.; means ± SE of 10 mice; absorbance at 640 nm
Non-standard residues stand in square brackets, D forms with d. Residues, ends and D or L forms follow the SMILES beside them. ξ: configuration not given here. *: point of attachment. pGlu = O=C1CC[C@@H](C(=O)O)N1; Morpholide = C1CN(*)CCO1; ξThz = O=C(O)C1CSCN1
RESULT TYPE: Absorbance Δ (0'-20')
# print the numeric value only

Prompt: Recorded Absorbance Δ (0'-20') of CCNC(=O)C1CSCN1C(=O)[C@@H]1CCC(=O)N1 (stereo partly shown) [Ic] ([pGlu]-[ξThz]-NHEt) , please.
Response: 0.371

Prompt: Recorded Absorbance Δ (0'-20') of NC(=O)C1CSCN1C(=O)[C@@H]1CCC(=O)N1 (stereo partly shown) [Ia] ([pGlu]-[ξThz]-NH2) , please.
Response: 0.370

Prompt: Recorded Absorbance Δ (0'-20') of O=C1CC[C@@H](C(=O)N2CSCC2C(=O)O)N1 (stereo partly shown) [PGT, reference compound] ([pGlu]-[ξThz]-OH) , please.
Response: 0.365

Prompt: Recorded Absorbance Δ (0'-20') of O=C1CC[C@@H](C(=O)N2CSCC2C(=O)N2CCOCC2)N1 (stereo partly shown) [Ib] ([pGlu]-[ξThz]-Morpholide) , please.
Response: 0.382
